# testedTarget: 5-HT4 receptor (Cavia porcellus, UniProt O70528)
# Construct: striatum was isolated which was cryopreserved at −80° C. until use; from tissue; host or cells: guinea pig (Slc-Hartley) striatum membranes
# Sequence (O70528 whole entry): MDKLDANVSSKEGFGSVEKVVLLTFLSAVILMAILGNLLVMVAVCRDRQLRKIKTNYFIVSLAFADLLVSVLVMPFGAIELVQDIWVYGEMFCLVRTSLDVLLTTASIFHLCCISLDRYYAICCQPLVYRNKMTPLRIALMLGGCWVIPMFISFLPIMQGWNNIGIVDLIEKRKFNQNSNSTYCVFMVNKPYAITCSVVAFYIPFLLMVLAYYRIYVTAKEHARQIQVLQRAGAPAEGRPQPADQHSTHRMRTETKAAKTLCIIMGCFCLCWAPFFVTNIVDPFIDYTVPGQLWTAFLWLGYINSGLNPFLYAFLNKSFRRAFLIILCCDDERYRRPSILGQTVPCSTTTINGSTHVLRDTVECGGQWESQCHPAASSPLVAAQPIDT
# testMethodNotes: Test Example 3: Guinea pig 5-HT4 receptor binding assay, [3H]-GR113808, striatum membranes (Table 98)
# experimentalConditions: Guinea pig 5-HT4 receptor binding assay, [3H]-GR113808, striatum membranes; mean value of each group; read-out: IC50
pIC50: −log10 of the molar value. Counter-ions that a name gives are not always drawn.
measuredQuantity: pIC50

The examples below pair each entry with its known result.
molecule	pIC50
COc1cccc2c(C(C)C)nn(-c3noc(C4CCN(C5CCC5)CC4)n3)c12	6.98
C=C(C)c1nn(-c2noc(C3CCN(C4CCN(C(=O)CO)CC4)CC3)n2)c2c(F)cccc12 [Example 521, hydrochloride]	7.03
CC(=O)N1CCC(N2CCC(c3nc(-n4nc(C(C)(C)O)c5cccc(F)c54)no3)CC2)CC1	7.44
COC(=O)N1CC(CN2CCC(c3nc(-n4nc(C(C)C)c5ccc(F)c(F)c54)no3)CC2)C1 [Example 474, trifluoroacetate]	7.69
CC(=O)N1CC(CN2CCC(c3nc(-n4nc(C(C)C)c5ccc(F)c(F)c54)no3)CC2)C1 [Example 472, trifluoroacetate]	7.53
Cc1ccc2c(C(C)C)nn(-c3noc(C4CCN(C5CCC5)CC4)n3)c2c1	7.19
COc1cccc2c(C(C)C)nn(-c3noc(C4CCN(C5CCN(C(C)=O)CC5)CC4)n3)c12	7.06
Cc1ccc2c(c1)c(C(C)C)nn2-c1noc(C2CCN(C3CCC3)CC2)n1	6.47

P: CCCCN1CCC(c2ncc(-n3nc(C(C)C)c4cccc(F)c43)s2)CC1
Q: CC(=O)N1CCC(N2CCC(c3nc(-n4nc(C(C)C)c5ccc(O)c(F)c54)no3)CC2)CC1
R: CC(=O)N1CCC(N2CCC(Cc3nc(-n4nc(C(C)C)c5cccc(F)c54)no3)CC2)CC1
S: CC(=O)N1CCC(N2CCC(c3nc(-n4nc(C(C)C)c5cc(C)ccc54)no3)CC2)CC1
[Q] Hello, I need these entries ordered by pIC50, highest reading first. Thanks! Could you list the labels in the order requested?
[A] R, Q, S, P

====

# testedTarget: human 5-HT4b receptor (Homo sapiens)
# Construct: expressed in transfected cells; host or cells: CHO cells (G418 selection)
# Sequence (Q13639 whole entry): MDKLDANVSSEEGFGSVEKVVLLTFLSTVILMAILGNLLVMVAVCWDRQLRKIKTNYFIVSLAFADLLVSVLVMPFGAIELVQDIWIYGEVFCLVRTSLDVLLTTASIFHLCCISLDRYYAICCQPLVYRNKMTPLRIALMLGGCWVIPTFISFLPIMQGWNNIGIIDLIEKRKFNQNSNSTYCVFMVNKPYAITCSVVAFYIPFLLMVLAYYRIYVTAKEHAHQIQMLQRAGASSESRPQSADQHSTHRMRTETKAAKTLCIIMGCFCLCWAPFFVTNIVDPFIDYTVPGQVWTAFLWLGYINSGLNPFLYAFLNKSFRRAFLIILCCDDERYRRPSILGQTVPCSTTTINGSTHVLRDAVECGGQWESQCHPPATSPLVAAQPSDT
# testMethodNotes: Test Example 4: Serotonin 4 (5-HT4) receptor agonist activity assay, cAMP HTRF in CHO cells (Table 100)
# Format: cell-based
# experimentalConditions: CHO, 0.25 h; intrinsic activity, maximal activity of 5-HT defined as 100%; mean value; read-out: IA (%)
Where a name gives a salt, the structure may show the parent alone.
measuredQuantity: Emax (%)

Answered cases to consult:
molecule	Emax (%)
CC(=O)N1CC[C@@H](CN2CC[C@@H](Cc3nc(-n4nc(C(C)C)c5cccc(F)c54)no3)C2)C1	70
CC(=O)N1CCC(N[C@H]2C[C@@H](c3nc(-n4nc(C(C)C)c5cccc(F)c54)no3)C2)CC1	99
CC(=O)N1CCC[C@@H]1CN1CC[C@H](Cc2nc(-n3nc(C(C)C)c4cccc(F)c43)no2)C1	82
CC(C)c1nn(-c2noc(C[C@H]3CCN(C[C@@H]4CCN(C(=O)CO)C4)C3)n2)c2c(F)cccc12	92

a: CC(C)c1nn(-c2noc(C[C@H]3CCN(C[C@@H]4CCCN4C(=O)CO)C3)n2)c2c(F)cccc12
b: CC(C)c1nn(-c2noc([C@H]3CC[C@@H](NCC4CCN(S(C)(=O)=O)CC4)CC3)n2)c2c(F)cccc12
c: COCC(=O)N1CC(CN2CCC(c3nc(-n4nc(C(C)C)c5ccc(F)c(F)c54)no3)CC2)C1 [Example 473, trifluoroacetate]
[Q] List items by Emax in falling order. Lab note: final answer is the ordered label list.
[A] a, c, b
(a: 106%, c: 58.5%, b: 32%)

====

// reported pIC50 per item
# testedTarget: 5-HT4 receptor (Cavia porcellus, UniProt O70528)
# Construct: striatum was isolated which was cryopreserved at −80° C. until use; from tissue; host or cells: guinea pig (Slc-Hartley) striatum membranes
# testMethodNotes: Test Example 3: Guinea pig 5-HT4 receptor binding assay, [3H]-GR113808, striatum membranes (Table 98)
# experimentalConditions: Guinea pig 5-HT4 receptor binding assay, [3H]-GR113808, striatum membranes; mean value of each group; read-out: IC50
pIC50: −log10 of the molar value. Where a name gives a salt, the structure may show the parent alone.

Take a look at these entries with their results.
compound	result
CC(C)c1nn(-c2noc(C3CCN(CCC(=O)Nc4ccccc4)CC3)n2)c2c(F)cccc12	> 7.70
CC(C)c1nn(-c2noc(C3CCN(C4CCOCC4)C3)n2)c2c(F)cccc12 (stereo not drawn)	> 7.70
COc1ccc(F)c2c1c(C(C)C)nn2-c1noc(C2CCN(C3CCN(C(C)=O)CC3)CC2)n1	7.18

[Q] Consider the compound shown here: CC(C)c1nn(-c2noc(C3CCN(C4CCC(F)(F)CC4)CC3)n2)c2c(F)cccc12 What is its recorded pIC50?
[A] > 7.70

[Q] Bench note: what pIC50 did CCc1nn(-c2noc(C3CCN(C4CCCC4)CC3)n2)c2c(F)c(F)ccc12 show?
[A] > 7.70

[Q] Consider the compound CC(C)c1nn(-c2noc(C3CCN(C4CCOCC4)CC3)n2)c2cccc(Cl)c12 and give its measured pIC50.
[A] 7.26

[Q] Given the compound CC(C)c1nn(-c2noc(C3CCN(C[C@H]4CCCN4C(=O)CO)CC3)n2)c2c(F)cccc12 [Example 529, hydrochloride] , what is its reported pIC50?
[A] > 7.70

====

Form: system (Human 5-HT4 receptor (5-HT4b) (Homo sapiens, UniProt Q13639)), quantity (pIC50), values below.
pIC50: −log10 of the molar value.
measuredQuantity: pIC50

molecule	testedTarget	pIC50
Cc1cccc2c1c(C(C)C)nn2-c1noc(C2CCN(C3CCOCC3)CC2)n1	Human 5-HT4 receptor (5-HT4b) (Homo sapiens, UniProt Q13639)	7.26

1: COCCNC1CCC(c2nc(-n3nc(C(C)C)c4cccc(F)c43)no2)CC1 (centres unmarked)
2: CC(C)Cc1nn(-c2noc(C3CCN(C4CCN(C(=O)CO)CC4)CC3)n2)c2c(F)cccc12
3: CC(C)c1nn(-c2noc(C3CCN(C(C)(C)C(=O)OC(C)(C)C)CC3)n2)c2c(F)cccc12
[Q] Arrange these 3 molecules in increasing order of pIC50. Please express your ranking as an ordered list of the labels.
[A] 3, 1, 2
(3: 6.65, 1: 7.16, 2: 7.60)

====

The listing below reports IC50 for molecules tested on Human 5-HT4 receptor (5-HT4b) (Homo sapiens, UniProt Q13639).
Structures can show the parent of a compound that is named as a salt.

[Q] GET /values?readout=IC50&system=Human 5-HT4 receptor (5-HT4b) (Homo sapiens, UniProt Q13639)&item= CC(C)c1nn(-c2noc(C3CCN(C(C)(C)C(=O)O)CC3)n2)c2c(F)cccc12 [Example 401, hydrochloride]
[A] 296 nM

[Q] Record CC(C)c1nn(-c2noc(C[C@H]3CCN(C[C@H]4CCN(S(C)(=O)=O)C4)C3)n2)c2c(F)cccc12 : what is its IC50 with Human 5-HT4 receptor (5-HT4b) (Homo sapiens, UniProt Q13639)?
[A] < 20 nM

[Q] Tell me reported IC50 for CC(C)c1nn(-c2noc(C3CC(NC4CCCOC4)C3)n2)c2c(F)cccc12 (stereo not drawn) , tested with Human 5-HT4 receptor (5-HT4b) (Homo sapiens, UniProt Q13639).
[A] < 20 nM

[Q] Return IC50 measured with Human 5-HT4 receptor (5-HT4b) (Homo sapiens, UniProt Q13639) given this molecule: CCc1nn(-c2noc(C3CCN(C4(C)CCN(C(=O)N(C)C)CC4)CC3)n2)c2c(F)cccc12
[A] < 20 nM

[Q] What value of IC50 on Human 5-HT4 receptor (5-HT4b) (Homo sapiens, UniProt Q13639) does CCC(C)c1nn(-c2noc(C3CCN(C4CCN(C(=O)CO)CC4)CC3)n2)c2c(F)cccc12 (stereo not drawn) have?
[A] < 20 nM

[Q] Fill in the recorded IC50 for this molecule, with Human 5-HT4 receptor (5-HT4b) (Homo sapiens, UniProt Q13639) as test system: CCCc1nn(-c2noc(C3CCN(C4CCN(C(=O)CO)CC4)CC3)n2)c2c(F)cccc12
[A] < 20 nM

====

# testedTarget: human 5-HT4b receptor (Homo sapiens)
# Construct: expressed in transfected cells; host or cells: CHO cells (G418 selection)
# testMethodNotes: Test Example 4: Serotonin 4 (5-HT4) receptor agonist activity assay, cAMP HTRF in CHO cells (Table 100)
# Assay type: cell-based
# experimentalConditions: concentration showing 50% of IA; mean value
Structures can show the parent of a compound that is named as a salt.
measuredQuantity: EC50 (nM)

Use these answered entries as a reference point.
molecule	scaleUnit	measuredNumber
CC(C)c1nn(-c2noc(C3CC(NCC4CCOCC4)C3)n2)c2c(F)cccc12 (stereo not drawn)	nM	9.1
COCC(=O)N1CC(CN2CCC(c3nc(-n4nc(C(C)C)c5cccc(F)c54)no3)CC2)C1 [Example 221, hydrochloride]	nM	6.1
CC(C)c1nn(-c2noc(C3CCN(C4CCN(C(=O)CO)CC4(C)C)CC3)n2)c2c(F)cccc12 (stereo not drawn)	nM	11.4

1: CC(C)c1nn(-c2noc(C[C@@H]3CCN(C[C@@H]4CCN(C(=O)CO)C4)C3)n2)c2c(F)cccc12
2: CC(C)c1nn(-c2noc(C[C@@H]3CCN(CC4CN(S(C)(=O)=O)C4)C3)n2)c2c(F)cccc12
3: CCC(C)c1nn(-c2noc(C3CCN(C4CCN(C(=O)CO)CC4)CC3)n2)c2c(F)cccc12 (stereo not drawn)
[Q] Would you mind ranking these molecules by ascending EC50? Please write the labels in the order that was asked for.
[A] 1, 2, 3
(1: 5.6 nM, 2: 12 nM, 3: 17.3 nM)
